The values you see were collected from patent US11191769B2.

Reported IKAROS % degradation at 1 µM is given for each of the following compounds.
study-target: IKAROS (Homo sapiens, UniProt Q13422+Q96SW2)
Construct: endogenous in cells; host or cells: MV-4-11
Sequence (Q13422 whole entry): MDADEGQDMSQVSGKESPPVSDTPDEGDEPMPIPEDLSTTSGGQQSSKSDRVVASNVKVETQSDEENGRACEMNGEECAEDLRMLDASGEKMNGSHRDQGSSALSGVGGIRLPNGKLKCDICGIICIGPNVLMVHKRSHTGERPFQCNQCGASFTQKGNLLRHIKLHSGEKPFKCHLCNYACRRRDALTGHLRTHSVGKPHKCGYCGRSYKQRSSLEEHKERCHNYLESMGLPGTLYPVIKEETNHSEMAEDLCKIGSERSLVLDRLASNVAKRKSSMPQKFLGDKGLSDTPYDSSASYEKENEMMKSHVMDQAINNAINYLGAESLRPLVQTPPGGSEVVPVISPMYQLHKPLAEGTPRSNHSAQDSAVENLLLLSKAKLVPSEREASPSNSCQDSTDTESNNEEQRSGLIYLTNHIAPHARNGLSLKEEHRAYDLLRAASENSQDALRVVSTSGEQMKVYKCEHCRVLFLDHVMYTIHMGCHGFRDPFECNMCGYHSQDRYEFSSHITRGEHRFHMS
Sequence (Q96SW2 whole entry): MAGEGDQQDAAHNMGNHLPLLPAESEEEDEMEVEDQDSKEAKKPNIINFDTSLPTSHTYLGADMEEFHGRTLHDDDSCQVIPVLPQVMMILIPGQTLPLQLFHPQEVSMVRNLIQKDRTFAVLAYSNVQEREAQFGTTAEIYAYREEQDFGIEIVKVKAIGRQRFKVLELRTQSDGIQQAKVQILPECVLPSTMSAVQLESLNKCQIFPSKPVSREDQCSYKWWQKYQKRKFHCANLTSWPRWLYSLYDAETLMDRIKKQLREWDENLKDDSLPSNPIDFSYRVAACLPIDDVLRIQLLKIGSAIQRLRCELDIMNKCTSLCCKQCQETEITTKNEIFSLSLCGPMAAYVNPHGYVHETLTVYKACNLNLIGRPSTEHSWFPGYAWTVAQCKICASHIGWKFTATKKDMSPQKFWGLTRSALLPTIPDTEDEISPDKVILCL
Sequence (Q16531 whole entry partner): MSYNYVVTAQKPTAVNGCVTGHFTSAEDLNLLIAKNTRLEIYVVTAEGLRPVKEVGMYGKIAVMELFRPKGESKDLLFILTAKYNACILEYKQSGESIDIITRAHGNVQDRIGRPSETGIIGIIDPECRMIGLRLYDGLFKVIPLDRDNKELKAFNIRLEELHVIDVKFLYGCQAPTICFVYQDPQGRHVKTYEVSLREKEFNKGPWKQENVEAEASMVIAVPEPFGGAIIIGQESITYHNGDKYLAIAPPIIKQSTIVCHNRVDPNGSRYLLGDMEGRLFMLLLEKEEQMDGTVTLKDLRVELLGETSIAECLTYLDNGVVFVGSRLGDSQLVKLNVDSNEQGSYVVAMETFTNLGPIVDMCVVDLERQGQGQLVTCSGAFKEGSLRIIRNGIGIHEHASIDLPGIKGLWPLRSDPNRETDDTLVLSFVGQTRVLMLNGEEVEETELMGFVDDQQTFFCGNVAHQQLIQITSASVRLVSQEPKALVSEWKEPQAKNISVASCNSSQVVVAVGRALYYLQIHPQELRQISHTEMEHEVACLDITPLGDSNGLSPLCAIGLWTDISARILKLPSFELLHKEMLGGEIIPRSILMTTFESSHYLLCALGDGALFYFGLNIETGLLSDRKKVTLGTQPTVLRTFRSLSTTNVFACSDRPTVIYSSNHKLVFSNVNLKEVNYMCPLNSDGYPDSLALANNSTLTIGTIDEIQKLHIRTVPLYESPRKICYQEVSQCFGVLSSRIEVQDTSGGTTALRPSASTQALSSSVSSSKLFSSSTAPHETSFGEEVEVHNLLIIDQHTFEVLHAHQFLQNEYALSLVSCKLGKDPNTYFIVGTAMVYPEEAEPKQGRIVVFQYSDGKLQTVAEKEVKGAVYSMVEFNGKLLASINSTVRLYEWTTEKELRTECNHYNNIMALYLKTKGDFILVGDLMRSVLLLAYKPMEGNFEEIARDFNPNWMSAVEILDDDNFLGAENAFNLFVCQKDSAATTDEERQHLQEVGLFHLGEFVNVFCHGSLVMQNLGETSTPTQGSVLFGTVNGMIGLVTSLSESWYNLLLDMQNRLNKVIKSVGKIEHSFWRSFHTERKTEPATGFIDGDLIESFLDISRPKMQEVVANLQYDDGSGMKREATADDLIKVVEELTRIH
procedure-details: IKAROS degradation assay (Western blot, MV-4-11 cells)
Format: cell-based
condition-notes: MV4-11, 1 μM, 6-8 hours

Before answering, review these 3 worked examples.
| compound | IKAROS % degradation at 1 µM |
| --- | --- |
| O=C1CC[C@H](N2Cc3c(csc3COc3ccc(CN4CCCC4)cc3)C2=O)C(=O)N1 [Compound 13] | 25 to 50% |
| O=C1CC[C@H](N2Cc3c(csc3COc3ccc(CN4CCOCC4)cc3F)C2=O)C(=O)N1 [Compound 8] | 25 to 50% |
| O=C1CC[C@H](N2Cc3c(csc3COc3cccc(CN4CCOCC4)c3)C2=O)C(=O)N1 [Compound 7] | 50 to 75% |

Any idea what its IKAROS % degradation at 1 µM is? The compound is O=C1CC[C@H](N2Cc3c(csc3COc3ccc(CCN4CCOCC4)cc3)C2=O)C(=O)N1 [Compound 15] 25 to 50%

Any idea what its IKAROS % degradation at 1 µM is? The compound is CC1CN(Cc2ccc(OCc3scc4c3CN([C@H]3CCC(=O)NC3=O)C4=O)cc2)CC(C)O1 (some centres unmarked) [Compound 17] 50 to 75%

====

System: IL-6
procedure-details: IL-6 inhibition assay, LPS-induced PBMCs or CD14+ monocytes, Meso Scale
Format: cell-based
condition-notes: 1 h pretreatment, 100 ng/mL LPS 18-24 h, supernatant
Protocol: Either frozen primary blood mononuclear cells (PBMCs) or frozen CD14+ mobilized peripheral blood monocytes were purchased from AllCells (PB003F, Normal Peripheral Blood MNC (Alameda, Calif.)). Cells were quick thawed, washed 1-time with RPMI-1640 (10% FBS/1% Pen-Strep) and plated in 96 well plates at 200,000 cells per well. […] The supernatant was analyzed for IL-1β, IL-6, and TNFα, using Meso Scale assay according to manufacturer's protocol. […]
Reported inhibition at 10 µM is given for each of the following molecules.

| molecule | inhibition at 10 µM |
| --- | --- |
| O=C1CC[C@H](N2Cc3c(csc3COCc3ccc(CN4CCOCC4)cc3)C2=O)C(=O)N1 [Compound 9] | < 50% |
| O=C1CC[C@H](N2Cc3c(csc3COc3ccc(CN4CCCC4)cc3)C2=O)C(=O)N1 [Compound 13] | 50 to 70% |
| CC1CN(Cc2ccc(OCc3scc4c3CN([C@H]3CCC(=O)NC3=O)C4=O)cc2)CC(C)O1 (stereo partly shown) [Compound 17] | < 50% |

Any idea what its inhibition at 10 µM is? The molecule is O=C1CC[C@H](N2Cc3c(csc3CCc3ccc(CN4CCOCC4)cc3)C2=O)C(=O)N1 [Compound 6] < 50%
